setup_conditions: 343.15 K; 101.33 kPa; Liquid; Capillary tube (Ostwald / Ubbelohde) method
property: viscosity (mPa·s)
Number in mPa·s, nothing else.

Below, 3 molecules whose answers are already recorded.
structure_smiles_string=CCCCCc1c(C)cc(C)c[n+]1CCCC.O=S(=O)([N-]S(=O)(=O)C(F)(F)F)C(F)(F)F result_unit=mPa·s result_value=28.6
structure_smiles_string=CCCCCc1c(C)cc(C)c[n+]1CC.O=S(=O)([N-]S(=O)(=O)C(F)(F)F)C(F)(F)F result_unit=mPa·s result_value=28
structure_smiles_string=CCCCCC[n+]1cc(C)cc(C)c1C.O=S(=O)([N-]S(=O)(=O)C(F)(F)F)C(F)(F)F result_unit=mPa·s result_value=23

Ask: Given the entry `CCCCCC[n+]1cc(C)cc(C)c1CCCCC.O=S(=O)([N-]S(=O)(=O)C(F)(F)F)C(F)(F)F` , report its measured viscosity.
Result: 30.9

* * *

setup_conditions: 308.15 K; 101.33 kPa; Liquid; Capillary tube (Ostwald / Ubbelohde) method
property: viscosity (mPa·s)
Form entry: value (mPa·s) — number only.

// worked examples, viscosity included
structure_smiles_string=CCCCCc1c(C)cc(C)c[n+]1CC.O=S(=O)([N-]S(=O)(=O)C(F)(F)F)C(F)(F)F property=viscosity result_value=138
structure_smiles_string=CCCCCc1c(C)cc(C)c[n+]1CCCC.O=S(=O)([N-]S(=O)(=O)C(F)(F)F)C(F)(F)F property=viscosity result_value=138
structure_smiles_string=CCCCCC[n+]1cc(C)cc(C)c1CCCCC.O=S(=O)([N-]S(=O)(=O)C(F)(F)F)C(F)(F)F property=viscosity result_value=151

Now for another entry.
Ask: Bench note: what viscosity did `CCCCCC[n+]1cc(C)cc(C)c1C.O=S(=O)([N-]S(=O)(=O)C(F)(F)F)C(F)(F)F` show?
Result: 98.2

* * *

procedure_details: refractive index (Na D-line) (dimensionless)
setup_conditions: 323.15 K; 101.33 kPa; Liquid; Standard Abbe refractometry
property: refractive index
I only need the number, thanks.

structure_smiles_string=CCCCCc1c(C)cc(C)c[n+]1CCCC.O=S(=O)([N-]S(=O)(=O)C(F)(F)F)C(F)(F)F result_value=1.45226
structure_smiles_string=CCCCCC[n+]1cc(C)cc(C)c1C.O=S(=O)([N-]S(=O)(=O)C(F)(F)F)C(F)(F)F result_value=1.45671
structure_smiles_string=CCCCCc1c(C)cc(C)c[n+]1CC.O=S(=O)([N-]S(=O)(=O)C(F)(F)F)C(F)(F)F result_value=1.45304

Then this compound:
Ask: Could you share which refractive index value was measured for `CCCCCC[n+]1cc(C)cc(C)c1CCCCC.O=S(=O)([N-]S(=O)(=O)C(F)(F)F)C(F)(F)F` ?
Result: 1.45255

* * *

procedure_details: refractive index (Na D-line) (dimensionless)
setup_conditions: 298.15 K; 101.33 kPa; Liquid; Standard Abbe refractometry
property: refractive index
Answer using only a numeral; do not append any unit.

Answered cases to consult:
structure_smiles_string=CCCCCc1c(C)cc(C)c[n+]1CCCC.O=S(=O)([N-]S(=O)(=O)C(F)(F)F)C(F)(F)F result_value=1.4604
structure_smiles_string=CCCCCc1c(C)cc(C)c[n+]1CC.O=S(=O)([N-]S(=O)(=O)C(F)(F)F)C(F)(F)F result_value=1.46108
structure_smiles_string=CCCCCC[n+]1cc(C)cc(C)c1CCCCC.O=S(=O)([N-]S(=O)(=O)C(F)(F)F)C(F)(F)F result_value=1.46074

// moving on: another record for refractive index
Ask: I am curious: what refractive index value has been reported for `CCCCCC[n+]1cc(C)cc(C)c1C.O=S(=O)([N-]S(=O)(=O)C(F)(F)F)C(F)(F)F` ?
Result: 1.46466

* * *

setup_conditions: 328.15 K; 101.33 kPa; Liquid; Sing-around technique in a fixed-path interferometer
property: speed of sound (m/s)
Express the result in m/s but write the number alone.

Take a look at these entries with their results.
structure_smiles_string=CCCCCC[n+]1cc(C)cc(C)c1CCCCC.O=S(=O)([N-]S(=O)(=O)C(F)(F)F)C(F)(F)F result_value=1213
structure_smiles_string=CCCCCC[n+]1cc(C)cc(C)c1C.O=S(=O)([N-]S(=O)(=O)C(F)(F)F)C(F)(F)F result_value=1218
structure_smiles_string=CCCCCc1c(C)cc(C)c[n+]1CC.O=S(=O)([N-]S(=O)(=O)C(F)(F)F)C(F)(F)F result_value=1233

Now for the compound whose speed of sound we want.
Ask: Give its speed of sound value. Item: `CCCCCc1c(C)cc(C)c[n+]1CCCC.O=S(=O)([N-]S(=O)(=O)C(F)(F)F)C(F)(F)F`
Result: 1215

* * *

setup_conditions: 303.15 K; 101.33 kPa; Liquid; Vibrating tube method
mass density by entry:
Record the value in kg/m3, omitting the unit from your answer.

structure_smiles_string=CCCCCC[n+]1cc(C)cc(C)c1C.O=S(=O)([N-]S(=O)(=O)C(F)(F)F)C(F)(F)F result_unit=kg/m3 result_value=1331.83
structure_smiles_string=CCCCCC[n+]1cc(C)cc(C)c1CCCCC.O=S(=O)([N-]S(=O)(=O)C(F)(F)F)C(F)(F)F result_unit=kg/m3 result_value=1249.29
structure_smiles_string=CCCCCc1c(C)cc(C)c[n+]1CC.O=S(=O)([N-]S(=O)(=O)C(F)(F)F)C(F)(F)F result_unit=kg/m3 result_value=1319.56

Moving on to another compound below.
Ask: Quick check: mass density of `CCCCCc1c(C)cc(C)c[n+]1CCCC.O=S(=O)([N-]S(=O)(=O)C(F)(F)F)C(F)(F)F` ?
Result: 1283.93

* * *

setup_conditions: 318.15 K; 101.33 kPa; Liquid; Sing-around technique in a fixed-path interferometer
# Lookup of reported speed of sound keyed by entry
Numbers only here, please. The scale is m/s.

Examples with answers:
structure_smiles_string=CCCCCC[n+]1cc(C)cc(C)c1CCCCC.O=S(=O)([N-]S(=O)(=O)C(F)(F)F)C(F)(F)F property="speed of sound" result_unit=m/s result_value=1238
structure_smiles_string=CCCCCC[n+]1cc(C)cc(C)c1C.O=S(=O)([N-]S(=O)(=O)C(F)(F)F)C(F)(F)F property="speed of sound" result_unit=m/s result_value=1240
structure_smiles_string=CCCCCc1c(C)cc(C)c[n+]1CCCC.O=S(=O)([N-]S(=O)(=O)C(F)(F)F)C(F)(F)F property="speed of sound" result_unit=m/s result_value=1240

Ask: What value of speed of sound has been reported for the following compound? `CCCCCc1c(C)cc(C)c[n+]1CC.O=S(=O)([N-]S(=O)(=O)C(F)(F)F)C(F)(F)F`
Result: 1258

* * *

setup_conditions: 343.15 K; 101.33 kPa; Liquid; Vibrating tube method
property: mass density (kg/m3)
Form entry: value (kg/m3) — number only.

Here are 3 compounds together with their reported answers.
structure_smiles_string=CCCCCc1c(C)cc(C)c[n+]1CC.O=S(=O)([N-]S(=O)(=O)C(F)(F)F)C(F)(F)F result_value=1285.03
structure_smiles_string=CCCCCC[n+]1cc(C)cc(C)c1C.O=S(=O)([N-]S(=O)(=O)C(F)(F)F)C(F)(F)F result_value=1297.4
structure_smiles_string=CCCCCc1c(C)cc(C)c[n+]1CCCC.O=S(=O)([N-]S(=O)(=O)C(F)(F)F)C(F)(F)F result_value=1249.77

Ask: # input compound: `CCCCCC[n+]1cc(C)cc(C)c1CCCCC.O=S(=O)([N-]S(=O)(=O)C(F)(F)F)C(F)(F)F` ; wanted: its mass density
Result: 1215.94

* * *

setup_conditions: 323.15 K; 101.33 kPa; Liquid; Capillary tube (Ostwald / Ubbelohde) method
Numbers after ± are expanded uncertainties.
Item-by-item account of viscosity

Examples with answers:
structure_smiles_string=CCCCCc1c(C)cc(C)c[n+]1CC.O=S(=O)([N-]S(=O)(=O)C(F)(F)F)C(F)(F)F property=viscosity result_value="62.8 ± 1.4 mPa·s"
structure_smiles_string=CCCCCC[n+]1cc(C)cc(C)c1CCCCC.O=S(=O)([N-]S(=O)(=O)C(F)(F)F)C(F)(F)F property=viscosity result_value="69.6 ± 1.6 mPa·s"
structure_smiles_string=CCCCCC[n+]1cc(C)cc(C)c1C.O=S(=O)([N-]S(=O)(=O)C(F)(F)F)C(F)(F)F property=viscosity result_value="48.3 ± 1.1 mPa·s"

Okay, next one:
Ask: Value lookup for viscosity; key = `CCCCCc1c(C)cc(C)c[n+]1CCCC.O=S(=O)([N-]S(=O)(=O)C(F)(F)F)C(F)(F)F`
Result: 63.7 ± 1.5 mPa·s
